The reported measurements were obtained from patent US20120172293A1.

Parameter IC50 Ratio (IC50 compound/IC50 PYY(3-36)): see the listing below.
Biological target: human Y2 receptor (human) (UniProt P49146)
Sequence (P49146 whole entry): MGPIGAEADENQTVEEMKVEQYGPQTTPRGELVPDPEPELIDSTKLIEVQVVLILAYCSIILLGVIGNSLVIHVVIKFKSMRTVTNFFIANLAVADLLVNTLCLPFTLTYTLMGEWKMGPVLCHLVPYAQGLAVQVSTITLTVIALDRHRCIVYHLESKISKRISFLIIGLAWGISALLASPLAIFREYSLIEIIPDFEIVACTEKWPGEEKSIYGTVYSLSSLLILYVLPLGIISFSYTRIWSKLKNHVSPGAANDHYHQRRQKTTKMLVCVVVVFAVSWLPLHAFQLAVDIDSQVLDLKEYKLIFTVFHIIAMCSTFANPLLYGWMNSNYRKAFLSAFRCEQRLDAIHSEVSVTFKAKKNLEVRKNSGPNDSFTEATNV
Experiment: RBA: displacement of [125I]-PYY from hY2R/CHO membranes
Non-standard residues stand in square brackets, D forms with d. Arg(Me) = CNC(=N)NCCC[C@H](N)C(=O)O; tBuAla = CC(C)(C)C[C@H](N)C(=O)O; 4Pal = N[C@@H](Cc1ccncc1)C(=O)O; dHyp = O=C(O)[C@H]1C[C@H](O)CN1; Cha = N[C@@H](CC1CCCCC1)C(=O)O; Iva = CC[C@](C)(N)C(=O)O; Aib = CC(C)(N)C(=O)O

- binder: "Ac-E[dHyp][Iva][4Pal][Cha][tBuAla]NK[Aib]TRQR[Cha]-NH2 (SMILES CC[C@](C)(NC(=O)[C@H]1C[C@H](O)CN1C(=O)[C@H](CCC(=O)O)NC(C)=O)C(=O)N[C@@H](Cc1ccncc1)C(=O)N[C@@H](CC1CCCCC1)C(=O)N[C@@H](CC(C)(C)C)C(=O)N[C@@H](CC(N)=O)C(=O)N[C@@H](CCCCN)C(=O)NC(C)(C)C(=O)N[C@H](C(=O)N[C@@H](CCCNC(=N)N)C(=O)N[C@@H](CCC(N)=O)C(=O)N[C@@H](CCCNC(=N)N)C(=O)N[C@@H](CC1CCCCC1)C(N)=O)[C@@H](C)O) [Ac-[Glu23, D-Hyp24, Iva25, Pya(4)26, Cha27,36, Leu(Me)28, Lys30, Aib31]-PYY(23-36)]"
  result: 1.2
- binder: "Ac-S[dP][Iva][4Pal][Cha][Aib]N[Arg(Me)][Aib]TRQR[Cha]-NH2 [Ac-[D-Pro24, Iva25, Pya(4)26, Cha27,36, Aib28,31, Arg(Me)30]-PYY(23-36)]"
  result: 2.4

IC50 Ratio (IC50 compound/IC50 PYY(3-36)) for Ac-[dP]R[4Pal][Cha][Aib]NK[Aib]TRQR[Cha]-NH2 (SMILES CC(=O)N1CCC[C@@H]1C(=O)N[C@@H](CCCNC(=N)N)C(=O)N[C@@H](Cc1ccncc1)C(=O)N[C@@H](CC1CCCCC1)C(=O)NC(C)(C)C(=O)N[C@@H](CC(N)=O)C(=O)N[C@@H](CCCCN)C(=O)NC(C)(C)C(=O)N[C@H](C(=O)N[C@@H](CCCNC(=N)N)C(=O)N[C@@H](CCC(N)=O)C(=O)N[C@@H](CCCNC(=N)N)C(=O)N[C@@H](CC1CCCCC1)C(N)=O)[C@@H](C)O) [Ac-[D-Pro24, Pya(4)26, Cha27,36, Aib28,31, Lys30]-PYY(24-36)] is 0.68
